Test description: VP16 transactivation reporter inhibitors, counter-screen for LRH-1 inverse agonist project, cell-based, luminescence, high throughput (AID 651615)
Conditions: Gal4-VP16 luciferase reporter cells, at 3.6 µM
The source made the active and inactive calls. No stated cut-off is given here; in the data, active means inhibition above about 33%; inactive means the rest.
Would you mind answering with one of these outcomes? active, inactive

Example cases with answers are listed next.
Cc1ccccc1C(=O)N/N=C/c1ccc([N+](=O)[O-])s1 | inactive
CC1CCc2nc(N)c(C#N)c(-c3cccnc3)c2C1 (stereo not given) | active
O=C(Nc1ccc([N+](=O)[O-])cc1)c1cccc([N+](=O)[O-])c1 | inactive
CCOC(=O)c1c(C)[nH]c(C(=O)COC(=O)/C=C/c2ccc3c(c2)OCO3)c1C | inactive

# ---- query molecule ----
Task item: Test call, this molecule: C=CC(=O)N1C/C(=C/c2ccc(F)cc2)C(=O)/C(=C\c2ccc(F)cc2)C1
Reply: active
